# target: Mot3 (UniProt P54785)
# Sequence: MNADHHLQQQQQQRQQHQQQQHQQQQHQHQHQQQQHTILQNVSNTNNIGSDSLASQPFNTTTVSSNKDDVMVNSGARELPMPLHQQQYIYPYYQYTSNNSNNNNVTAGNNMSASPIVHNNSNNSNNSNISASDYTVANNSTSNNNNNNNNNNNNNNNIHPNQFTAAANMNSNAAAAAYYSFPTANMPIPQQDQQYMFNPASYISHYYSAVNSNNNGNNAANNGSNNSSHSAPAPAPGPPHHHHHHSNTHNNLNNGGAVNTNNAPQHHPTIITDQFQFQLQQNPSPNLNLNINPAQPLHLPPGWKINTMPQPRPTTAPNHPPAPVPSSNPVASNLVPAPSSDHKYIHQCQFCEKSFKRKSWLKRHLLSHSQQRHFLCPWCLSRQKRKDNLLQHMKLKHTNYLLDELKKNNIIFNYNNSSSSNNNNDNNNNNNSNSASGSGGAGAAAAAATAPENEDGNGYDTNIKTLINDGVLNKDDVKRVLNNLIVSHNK
# experiment: PBM E-score (8-mer binding enrichment) (E-score (-0.5 to 0.5)); higher = stronger / more preferred TF binding
# applied conditions: protein concentration: 200 nM; construct: GST-full length
In all, about 33,000 sequences were measured (“E-score (-0.5 to 0.5)”: median about -0.035, highest 2% from about 0.34 on). The sample as a whole holds a higher share of the highest values than the screen did.
Could you please classify the records by PBM E-score using these ranges: low range = under 0.2, mid range = from 0.2 up to 0.4, high range = 0.4 and over

Consider the following illustrative entries.
CATGTAAA | high range
CCTGTAAA | mid range
AATGTAAT | mid range

Place this sequence in its band: CACTAGTG low range
